System: foxtail, giant (giant foxtail, Setaria faberi)
Assay: Test A postemergence, foxtail, giant
Format: in vivo
Settings: Setaria faberi, post-emergence, 240 h; Postemergence, 31 g ai/ha; 0 to 100 scale, 10 days; read-out: Plant response rating, Foxtail, Giant

[
  {
    "Smiles input": "COC(=O)OCOc1c(Cl)nn(C)c(=O)c1-c1c2cc(C)ccc2cc2ccc(C)cc12",
    "pest or weed control at 31 g/ha [%]": 10
  },
  {
    "Smiles input": "Cc1ccc2cc3ccc(C)cc3c(-c3c(OCOC(=O)C(C)(C)C)c(Cl)nn(C)c3=O)c2c1",
    "pest or weed control at 31 g/ha [%]": 20
  },
  {
    "Smiles input": "CC(=O)OCOc1c(C)nn(C)c(=O)c1-c1c(Br)sc2ccc(F)cc12",
    "pest or weed control at 31 g/ha [%]": 50
  },
  {
    "Smiles input": "CC(=O)OCOc1c(Cl)nn(C)c(=O)c1-c1c(C)ccc2ccc(C)cc12",
    "pest or weed control at 31 g/ha [%]": 80
  },
  {
    "Smiles input": "CC(=O)OCOc1c(Cl)nn(C)c(=O)c1-c1c2ccccc2cc2ccccc12",
    "pest or weed control at 31 g/ha [%]": 10
  },
  {
    "Smiles input": "CC(=O)OCOc1c(Cl)nn(C)c(=O)c1-c1c2ccccc2c(Cl)c2ccccc12",
    "pest or weed control at 31 g/ha [%]": 30
  }
]

---

Test system: soybean (Glycine max)
Assay: Test A preemergence, soybean
Format: in vivo
Details: 31 g ai/ha, 0 to 100 scale, 10 days
Measured parameter: Plant response rating, Soybean

[
  {
    "Compound": "Cc1cc(C)c2cc3ccccc3c(-c3c(OCOC(=O)C(C)(C)C)c(Cl)nn(C)c3=O)c2c1 [Compound 20]",
    "Measured parameter": "Plant response rating, Soybean",
    "Assay value": 0
  },
  {
    "Compound": "COC(=O)OCOc1c(Cl)nn(C)c(=O)c1-c1c2cc(C)ccc2cc2ccc(C)cc12 [Compound 8]",
    "Measured parameter": "Plant response rating, Soybean",
    "Assay value": 0
  },
  {
    "Compound": "Cc1ccc2cc3ccc(F)cc3c(-c3c(OCOC(=O)N(C)C)c(C)nn(C)c3=O)c2c1 [Compound 16]",
    "Measured parameter": "Plant response rating, Soybean",
    "Assay value": 0
  },
  {
    "Compound": "COC(=O)OCOc1c(C)nn(C)c(=O)c1-c1c2cc(C)ccc2cc2ccc(F)cc12 [Compound 15]",
    "Measured parameter": "Plant response rating, Soybean",
    "Assay value": 0
  },
  {
    "Compound": "Cc1ccc2cc3ccc(C)cc3c(-c3c(OCOC(=O)C(C)(C)C)c(Cl)nn(C)c3=O)c2c1 [Compound 9]",
    "Measured parameter": "Plant response rating, Soybean",
    "Assay value": 0
  },
  {
    "Compound": "Cn1nc(Cl)c(OCOC(=O)C(C)(C)C)c(-c2c3ccccc3cc3ccccc23)c1=O [Compound 19]",
    "Measured parameter": "Plant response rating, Soybean",
    "Assay value": 0
  },
  {
    "Compound": "Cc1ccc2cc3ccc(F)cc3c(-c3c(OCOC(=O)OC(C)C)c(C)nn(C)c3=O)c2c1 [Compound 17]",
    "Measured parameter": "Plant response rating, Soybean",
    "Assay value": 0
  },
  {
    "Compound": "Cc1ccc2cc3ccc(F)cc3c(-c3c(OCOC(=O)C(C)(C)C)c(C)nn(C)c3=O)c2c1 [Compound 21]",
    "Measured parameter": "Plant response rating, Soybean",
    "Assay value": 0
  },
  {
    "Compound": "Cc1ccc2cc3ccc(C)cc3c(-c3c(OCOC(=O)N(C)C)c(Cl)nn(C)c3=O)c2c1 [Compound 18]",
    "Measured parameter": "Plant response rating, Soybean",
    "Assay value": 0
  }
]

---

System: barnyardgrass (Echinochloa crus-galli)
Experiment: Test B flooded paddy test, barnyardgrass
Format: in vivo
Settings: Echinochloa crus-galli; 250 g ai/ha, Flood; visually evaluated after 10 to 14 days; read-out: Plant response rating, Barnyardgrass (0 to 100 scale where 0 is no effect and 100 is complete control)
Measured parameter: pest or weed control at 250 g/ha (%)

[
  {
    "Compound": "CC(=O)OCOc1c(C)nn(C)c(=O)c1-c1c(Br)sc2ccc(F)cc12 [Compound 2]",
    "Measured parameter": "pest or weed control at 250 g/ha",
    "Assay value": 0
  },
  {
    "Compound": "CC(=O)OCOc1c(Cl)nn(C)c(=O)c1-c1c(C)ccc2ccccc12 [Compound 5]",
    "Measured parameter": "pest or weed control at 250 g/ha",
    "Assay value": 40
  },
  {
    "Compound": "CC(=O)OCOc1c(Cl)nn(C)c(=O)c1-c1c2ccccc2c(Cl)c2ccccc12 [Compound 11]",
    "Measured parameter": "pest or weed control at 250 g/ha",
    "Assay value": 15
  },
  {
    "Compound": "Cc1ccc2cc3ccc(C)cc3c(-c3c(OCOC(=O)C(C)(C)C)c(Cl)nn(C)c3=O)c2c1 [Compound 9]",
    "Measured parameter": "pest or weed control at 250 g/ha",
    "Assay value": 98
  },
  {
    "Compound": "CC(=O)OCOc1c(C)nn(C)c(=O)c1-c1c2cc(C)ccc2cc2ccc(F)cc12 [Compound 24]",
    "Measured parameter": "pest or weed control at 250 g/ha",
    "Assay value": 70
  },
  {
    "Compound": "COC(=O)OCOc1c(C)nn(C)c(=O)c1-c1c2cc(C)ccc2cc2ccc(F)cc12 [Compound 15]",
    "Measured parameter": "pest or weed control at 250 g/ha",
    "Assay value": 50
  }
]

---

Test system: foxtail, giant (giant foxtail, Setaria faberi)
Test: Test A preemergence, foxtail, giant
Assay type: in vivo
Settings: 31 g ai/ha, 0 to 100 scale, 10 days

[
  {
    "Smiles input": "CC(=O)OCOc1c(C)nn(C)c(=O)c1-c1c2ccccc2cc2ccccc12",
    "Plant response rating, Foxtail, Giant": 0
  },
  {
    "Smiles input": "Cn1nc(Cl)c(OCOC(=O)C(C)(C)C)c(-c2c3ccccc3cc3ccccc23)c1=O",
    "Plant response rating, Foxtail, Giant": 10
  },
  {
    "Smiles input": "Cc1cc(C)c2cc3ccccc3c(-c3c(OCOC(=O)C(C)(C)C)c(Cl)nn(C)c3=O)c2c1",
    "Plant response rating, Foxtail, Giant": 0
  },
  {
    "Smiles input": "Cc1ccc2cc3ccc(F)cc3c(-c3c(OCOC(=O)OC(C)C)c(C)nn(C)c3=O)c2c1",
    "Plant response rating, Foxtail, Giant": 100
  },
  {
    "Smiles input": "Cc1ccc2cc3ccc(F)cc3c(-c3c(OCOC(=O)N(C)C)c(C)nn(C)c3=O)c2c1",
    "Plant response rating, Foxtail, Giant": 0
  },
  {
    "Smiles input": "CC(=O)OCOc1c(Cl)nn(C)c(=O)c1-c1c2cc(C)ccc2cc2ccc(C)cc12",
    "Plant response rating, Foxtail, Giant": 0
  },
  {
    "Smiles input": "Cc1ccc2cc3ccc(C)cc3c(-c3c(OCOC(=O)N(C)C)c(Cl)nn(C)c3=O)c2c1",
    "Plant response rating, Foxtail, Giant": 0
  },
  {
    "Smiles input": "CC(=O)OCOc1c(C)nn(C)c(=O)c1-c1c2cc(C)ccc2cc2c(F)cc(C)cc12",
    "Plant response rating, Foxtail, Giant": 0
  }
]

---

Each entry below carries its recorded Plant response rating, Foxtail, Green.
Test system: foxtail, green (green foxtail, Setaria viridis)
Test: Test A preemergence, foxtail, green
Type: in vivo
Conditions: 125 g ai/ha, 0 to 100 scale, 10 days

[
  {
    "Smiles input": "CC(=O)OCOc1c(Cl)nn(C)c(=O)c1-c1c(C)ccc2ccccc12",
    "Plant response rating, Foxtail, Green": 90
  },
  {
    "Smiles input": "CC(=O)OCOc1c(Cl)nn(C)c(=O)c1-c1c(C)sc2cccc(Cl)c12",
    "Plant response rating, Foxtail, Green": 10
  },
  {
    "Smiles input": "Cc1ccc2ccccc2c1-c1c(OCOC(=O)C(C)(C)C)c(Cl)nn(C)c1=O",
    "Plant response rating, Foxtail, Green": 100
  },
  {
    "Smiles input": "Cc1cc(Cl)c2ccc(F)cc2c1-c1c(OCOC(=O)C(C)(C)C)c(C)nn(C)c1=O",
    "Plant response rating, Foxtail, Green": 100
  },
  {
    "Smiles input": "Cc1ccc2ccccc2c1-c1c(OCOC(=O)C(C)C)c(Cl)nn(C)c1=O",
    "Plant response rating, Foxtail, Green": 50
  },
  {
    "Smiles input": "Cc1ccc2ccc(F)cc2c1-c1c(OCOC(=O)C(C)(C)C)c(Cl)nn(C)c1=O",
    "Plant response rating, Foxtail, Green": 100
  }
]
